Assay: gradient 5% acetonitrile 3 min, to 50% in 2 min, to 85% in 15 min, held 3 min, 100 µL/min
Details: column: Zorbax Extend-C18 2.1 x 50 mm; eluents: water / acetonitrile, 0.1% formic acid
# RP-LC retention time annotations
Dear colleague, please return just the value in s, with no unit written.

Worked set:
>>> value("O=S(=O)(c1ccc(-c2nnc(C3CCC3)o2)o1)N1CCCC1")
846
>>> value("CCCSCCCNC(=O)CN1C(=O)CCn2nc(-c3cn(C)c4ccccc34)cc21")
832
>>> value("COc1cccc2cc(-c3nnc(NC(=O)c4ccc([N+](=O)[O-])s4)o3)oc12")
965
>>> value("CNC(=O)N1CCCC(c2cccc(C(=O)NC3CCCCCC3)c2)C1 (centres undefined)")
820
>>> value("O=C(O)c1cccc(Nc2c(-c3ccccc3)nc3cnccn23)c1")
697

Sample `Cc1nc(-c2cccc(-c3noc(-c4ccc5cc[nH]c5c4)n3)c2)cs1` — what was its RP-LC retention time?
1230

Please do the same for `C=CCN(CC=C)S(=O)(=O)c1ccc(C(=O)Nc2nnc(CSC)o2)cc1` as well.
764

Another compound: `O=C(NCCc1csc(-c2cccs2)n1)C1CCN(S(=O)(=O)c2ccc(Cl)cc2)CC1`
963

Param item: `O=C(CSc1ccc(NC(=O)c2cccs2)nn1)Nc1nc2ccccc2s1`
840
